In this section, each of the compounds is paired with its reported z-score.
test: blood-stage malaria parasite viability loss – strain 3D7, DAPI fluorescence, 100 nL, primary screen (AID 1184);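 note: parasites grown inside human red blood cells in medium with human serum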; conditions: P. falciparum 3D7 growth, 3 d, higher = more signal
Just the number.

Examples with answers:
{"columns": ["COMPOUND", "MEASURE_NAME", "TEST_RESULT"],
 "data": [
  ["CCOC(=O)c1cn(C[C@H](Cc2ccccc2)NC(=O)N[C@H](CO)CCc2oc(C(C)=O)c(C(=O)OC)c2C(=O)OC)nn1", "z-score", -1.63],
  ["CC(C)C[C@@H]1NC(=O)[C@@]23C(=O)N[C@@H](Cc4ccccc4)C2[C@H](C)[C@@]2(C)O[C@H]2C3/C=C/C/C=C\\CNC(=O)CNC1=O (some centres not stated)", "z-score", -0.59],
  ["CCOC(=O)C1=C[C@@H](C(C)(C)C)N(S(=O)(=O)c2ccc(C)cc2)[C@H]1c1ccc(C#N)cc1", "z-score", -1.82]
]}

Give the measured z-score of O=C1C2C=CC(C(O)c3cccs3)N(Nc3ccc([N+](=O)[O-])cc3)C2C(=O)N1c1ccccc1 (configuration not stated) .
-0.965

Give the measured z-score of `CC(C)(C)OC(=O)CC[C@@]1(C(=O)NCCN2CCOCC2)N=C(c2ccc(OCCCO)cc2)O[C@@H]1c1ccccc1CN=[N+]=[N-]` .
-0.41

Give the measured z-score of `O=C1O[C@@H](c2ccccc2)[C@@H](c2ccccc2)N2[C@@H](c3ccc(OCCO)cc3)[C@]3(C(=O)Nc4ccc(C#CC5(O)CCCCCC5)cc43)[C@@H](C(=O)O)[C@H]12` .
-0.0628

Give the measured z-score of `C=C(CCCC)C(=O)CC[C@@H](OC(=O)c1ccccc1-c1ccccc1C(=O)O)c1ccccc1OCCO` .
-2.92

src = PubChem BioAssay
